measured-target: T1, cynomolgus monkey IL-6 (Macaca fascicularis, UniProt P79341)
T1 construct: His
T1 sequence (P79341 28-212): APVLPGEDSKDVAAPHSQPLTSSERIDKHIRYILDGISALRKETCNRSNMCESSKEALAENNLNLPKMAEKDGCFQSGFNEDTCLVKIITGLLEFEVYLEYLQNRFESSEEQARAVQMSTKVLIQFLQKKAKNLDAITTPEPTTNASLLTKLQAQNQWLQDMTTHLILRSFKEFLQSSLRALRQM
measurement-notes: Surface plasmon resonance (Biacore), cynomolgus monkey IL-6
Format: binding
assay-conditions: cy/cyno; periplasmic fractions, 28A6 chain-shuffled

{"columns": ["molecule", "ka (M⁻¹ s⁻¹)"],
 "data": [
  ["55E10g1: 28A6 chain-shuffled Fab, periplasmic fraction (antibody, V domains shown) VH: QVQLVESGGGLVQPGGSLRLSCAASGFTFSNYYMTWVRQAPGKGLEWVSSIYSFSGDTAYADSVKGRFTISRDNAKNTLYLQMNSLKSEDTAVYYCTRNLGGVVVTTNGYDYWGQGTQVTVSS VL: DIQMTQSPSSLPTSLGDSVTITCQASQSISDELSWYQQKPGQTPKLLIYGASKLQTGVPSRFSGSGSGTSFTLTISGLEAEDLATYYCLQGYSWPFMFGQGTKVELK", 145000]
]}
